Value source: patent US20260365670A1

Molecular target: EGFR[T790M/C797S/d746-750] (Homo sapiens, UniProt P00533, C797S/DEL746-750/T790M)
Construct: purchased Carna Bio
Sequence (P00533 with tags, fused parts or gaps DEL746-750/T790M/C797S limits assumed): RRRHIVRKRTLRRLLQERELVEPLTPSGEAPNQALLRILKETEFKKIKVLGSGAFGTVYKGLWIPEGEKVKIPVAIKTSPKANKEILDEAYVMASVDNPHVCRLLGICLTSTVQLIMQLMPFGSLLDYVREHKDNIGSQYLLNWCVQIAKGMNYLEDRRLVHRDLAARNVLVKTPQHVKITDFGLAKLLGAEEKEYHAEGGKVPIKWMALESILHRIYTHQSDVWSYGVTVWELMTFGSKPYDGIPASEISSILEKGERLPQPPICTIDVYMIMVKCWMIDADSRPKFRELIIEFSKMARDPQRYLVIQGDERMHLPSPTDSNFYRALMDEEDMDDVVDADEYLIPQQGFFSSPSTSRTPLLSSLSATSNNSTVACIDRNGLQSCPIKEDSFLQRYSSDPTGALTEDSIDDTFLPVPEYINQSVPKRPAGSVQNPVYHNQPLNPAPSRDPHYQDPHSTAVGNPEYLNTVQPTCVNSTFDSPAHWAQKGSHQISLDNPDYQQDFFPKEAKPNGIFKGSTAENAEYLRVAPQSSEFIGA
Experiment: Inhibition of EGFR[T790M/C797S/d746-750] biochemical enzymatic activity (HTRF)
Settings: EGFR T790M-C797S-Del19, 1 mM ATP, 1 h, room temperature, read-out: IC50 (nM) @T790M - C797S - Del19
assay-endpoint: IC50 (nM)

- compound: "CN1CCC2(CC1)CCN(c1ccc3nc4n(c3c1)C13CCC(CN(CCOc5c(cnn5C)-c5cc(cn(C)c5=O)C(=O)N4)C1)C3)C2 (single isomer, unassigned) [Example A88B]"
  assay-endpoint: "IC50"
  meas-value: 4.6

1. Cn1ncc2c1OCCN1CC3CCC(C3)(C1)n1c(nc3ccc(N4CC(N5CCOCC5)C4)cc31)NC(=O)c1cc-2c(=O)n(C)c1 (single isomer, unassigned) [Example A69B]
2. C[C@@H]1CCCOc2c(cnn2C)-c2cc(cn(C)c2=O)C(=O)Nc2nc3ccc(N4CCC(N5CCN(C)CC5)CC4)cc3n2C1 [Example A29]
Req: Just curious, which one has the larger IC50 reading, 1 or 2 ? Mark your selection by writing its label.
Resp: 2
(2: 8.2 nM, 1: 2.2 nM)

###

Biological target: EGFR Exon19Del (Homo sapiens, UniProt P00533, DEL746-750)
Construct: purchased Carna Bio
Sequence (P00533 with tags, fused parts or gaps DEL746-750 limits assumed): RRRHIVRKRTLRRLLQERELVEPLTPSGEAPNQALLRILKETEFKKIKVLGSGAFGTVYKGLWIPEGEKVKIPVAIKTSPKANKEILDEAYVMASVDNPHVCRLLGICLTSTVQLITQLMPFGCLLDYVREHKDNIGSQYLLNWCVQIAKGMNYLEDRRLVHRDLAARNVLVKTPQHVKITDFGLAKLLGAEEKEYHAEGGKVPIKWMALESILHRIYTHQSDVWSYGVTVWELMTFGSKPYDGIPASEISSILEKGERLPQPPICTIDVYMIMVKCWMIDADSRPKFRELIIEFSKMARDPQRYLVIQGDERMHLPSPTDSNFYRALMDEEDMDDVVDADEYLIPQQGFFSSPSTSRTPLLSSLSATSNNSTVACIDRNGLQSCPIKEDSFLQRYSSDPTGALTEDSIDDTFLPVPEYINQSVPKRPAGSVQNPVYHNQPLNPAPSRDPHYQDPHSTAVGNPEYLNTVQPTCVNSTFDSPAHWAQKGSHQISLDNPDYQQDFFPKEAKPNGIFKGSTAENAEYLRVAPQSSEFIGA
Experiment: Inhibition of EGFR Exon19Del biochemical enzymatic activity (HTRF)
Conditions: EGFR Exon19Del, 1 mM ATP, 1 h at room temperature, read-out: IC50 @Del19
assay-endpoint: IC50 (nM)

- compound: "Cc1cc2cc(n1)-c1cnn(C)c1OCCN1CCOCC(C1)n1c(nc3ccccc31)NC2=O (centres unmarked) [Example B7]"
  experimental-target: "EGFR Exon19Del (Homo sapiens, UniProt P00533, DEL746-750)"
  IC50 [nM]: 1420
- compound: "Cc1cc2cc(n1)-c1cnn(C)c1OCCN1CC3CCC(C3)(C1)n1c(nc3ccc(N4CC[C@@H](N(C)C)C4)cc31)NC2=O (single isomer, unassigned) [Example B42B]"
  experimental-target: "EGFR Exon19Del (Homo sapiens, UniProt P00533, DEL746-750)"
  IC50 [nM]: 13
- compound: "Cc1cc2cc(n1)-c1cnn(C)c1OCCN1CC3CCC(C3)(C1)n1c(nc3ccc(N4CCC5(CN(C)C5)C4)cc31)NC2=O (single isomer, unassigned) [Example B50B]"
  experimental-target: "EGFR Exon19Del (Homo sapiens, UniProt P00533, DEL746-750)"
  IC50 [nM]: 5.1

1. Cc1cc2cc(n1)-c1cnn(C)c1OCCN1CC3CCC(C3)(C1)n1c(nc3ccc(N4CCC(N5CCOCC5)C4)cc31)NC2=O (single isomer, unassigned) [Example B44B2]
2. Cc1cc2cc(n1)-c1cnn(C)c1OCCN1CC3CCC(C3)(C1)n1c(nc3ccc(N(C)CCN(C)C)cc31)NC2=O (single isomer, unassigned) [Example B47B]
3. Cc1cc2cc(n1)-c1cnn(C)c1OCCN1CC3CCC(C3)(C1)n1c(nc3ccc(N4CC(N5CCOCC5)C4)cc31)NC2=O (single isomer, unassigned) [Example B48A]
4. Cc1cc2cc(n1)-c1cnn(C)c1OCCN1CC3CCC(C3)(C1)n1c(nc3ccc(N4CCN(C)CC4)cc31)NC2=O (centres unmarked) [Example B9B]
Req: Write the entries in order, lowest recorded IC50 first. Please reply with the labels ordered as requested. Many thanks.
Resp: 4, 2, 1, 3
